- system: Replicase polyprotein 1ab (Human coronavirus 229E, UniProt P0C6X1)
- Sequence (P0C6X1 2966-3267 limits assumed): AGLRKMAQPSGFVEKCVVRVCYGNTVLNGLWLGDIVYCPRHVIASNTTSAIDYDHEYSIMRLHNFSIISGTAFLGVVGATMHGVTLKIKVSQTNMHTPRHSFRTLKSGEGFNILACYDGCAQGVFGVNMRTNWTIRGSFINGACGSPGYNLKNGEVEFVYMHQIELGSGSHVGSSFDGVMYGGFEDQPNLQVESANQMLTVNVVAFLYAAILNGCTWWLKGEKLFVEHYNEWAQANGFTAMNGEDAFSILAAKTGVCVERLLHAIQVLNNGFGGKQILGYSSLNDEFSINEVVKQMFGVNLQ
- experimental.details: Inhibition of hCoV-229E 3CLpro using Dabcyl-KTSAVLQSGFRKM-Glu(Edans) as substrate preincubated 1 hr in presence of 2 mM GSH followed by substrate addition and measured after 30 mins by FRET assay
pIC50: −log10 of the molar value.

{"structure.string": "CSc1nc2ccccc2n1C(=O)c1ccc(C)cc1", "pIC50": 5.72}
{"structure.string": "Cc1ccc(C(=O)n2c(C)nc3ccccc32)cc1F", "pIC50": 5.59}
{"structure.string": "CSc1nc2cc3c(cc2n1C(=O)c1ccc(C)cc1)OCCO3", "pIC50": 6.72}
{"structure.string": "CSc1nc2cc3c(cc2n1C(=O)c1ccc(C)c(F)c1)OCO3", "pIC50": 6.49}
{"structure.string": "CSc1nc2ccccc2n1C(=O)c1ccc(C)c(F)c1", "pIC50": 6.46}
{"structure.string": "CSc1nc2cc3c(cc2n1C(=O)c1ccc(C)cc1)OCO3", "pIC50": 6.12}
